TESTED ON: HLA-DRB3 (DRB3*0101) (human)
TEST SUMMARY: competition binding
CONDITION: chains peptide; modification not given
pIC50: −log10 of the molar value.
Answer each item with its documented pIC50.

PQDVKFPGGGQIVGGVYLLPRRGPRLGVR [1C 19-47]: < 4.00
SSDLYLVTRHADVIPVRRRGDSRGSLL [13N 1127-1153]: < 5.00

Now look at this entry.
Ask: What does the data say about its pIC50? Entry: AQGYKVLVLNPSVAATLGFGAYMSKAHGID [18N 1246-1275]
Reply: < 4.52
